target or test system: CCXCKR2 receptor (Homo sapiens)
Construct: expressed in transfected cells; host or cells: MDA-MB-435S transfected with pcDNA3.1(+)-hRDC1 and/or MCF-7 (endogenous receptor)
assay explanation: Displacement of 125I-labeled SDF-1 from the CCXCKR2 receptor on MCF-7 and/or CCXCKR2-transfected MDA-MB-435S cells (radioligand binding, filtration)
recorded conditions: 125I SDF-1, 3 hr at 4° C., MCF-7 and/or MDA-MB-435S cells; read-out: Activity (concentration displacing at least 50% of the SDF-1 from the CCXCKR2 receptor)
Quick reference: IC50 of the listed items.

Consider the following illustrative entries.
Cc1ccc(C(=O)c2cn(Cc3ccccn3)c3ccc(C(F)(F)F)cc3c2=O)cc1C	500 to 20000 nM
Cc1cc(C(=O)c2cn(C(C)c3cccc(Br)n3)c3ccccc3c2=O)cnc1C (centres unmarked)	500 to 20000 nM

So for CN(C)C(=O)c1ccccc1C(=O)c1cn(Cc2cccc(Br)n2)c2ccccc2c1=O , the logged IC50 turned out to be < 100 nM

Briefly, IC50 measured for Cc1ccc(C(=O)c2cn(Cc3cscn3)c3ccccc3c2=O)cc1C : < 100 nM

* * *

The entries below come with measured IC50 values attached.
target or test system: CCXCKR2 receptor (Homo sapiens, UniProt P25106)
Construct: expressed in transfected cells; host or cells: MDA-MB-435S transfected with pcDNA3.1(+)-hRDC1 and/or MCF-7 (endogenous receptor)
Sequence (P25106 whole entry): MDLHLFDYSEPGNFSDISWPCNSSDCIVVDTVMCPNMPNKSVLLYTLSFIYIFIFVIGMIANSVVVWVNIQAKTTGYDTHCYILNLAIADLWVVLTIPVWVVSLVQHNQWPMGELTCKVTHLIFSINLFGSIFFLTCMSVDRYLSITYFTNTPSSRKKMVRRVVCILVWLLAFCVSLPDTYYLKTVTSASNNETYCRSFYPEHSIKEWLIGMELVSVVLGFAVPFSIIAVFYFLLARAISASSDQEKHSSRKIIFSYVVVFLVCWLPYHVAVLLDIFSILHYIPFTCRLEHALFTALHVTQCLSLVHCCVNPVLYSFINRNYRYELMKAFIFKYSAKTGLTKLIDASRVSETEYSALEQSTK
assay explanation: Displacement of 125I-labeled SDF-1 from the CCXCKR2 receptor on MCF-7 and/or CCXCKR2-transfected MDA-MB-435S cells (radioligand binding, filtration)
recorded conditions: 125I SDF-1, 3 hr at 4° C., MCF-7 and/or MDA-MB-435S cells; read-out: Activity (concentration displacing at least 50% of the SDF-1 from the CCXCKR2 receptor)

CNC(=O)c1ccccc1C(=O)c1cn(Cc2cccc(Br)n2)c2ccccc2c1=O	500 to 20000 nM

The molecule listed as Cc1ccc(C(=O)c2cn(Cc3cccc(Br)n3)c3c(C)ccnc3c2=O)cc1C has a reported IC50 of 500 to 20000 nM

Reported IC50 ( CN(C)c1cccc(C(=O)c2cn(Cc3cccc(Br)n3)c3ccccc3c2=O)c1 ) = < 100 nM

Notebook: O=C(c1ccc(Cl)c(F)c1)c1cn(Cc2cccc(Br)n2)c2ccccc2c1=O , IC50 read as < 100 nM

Lookup result for Cc1cccc(Cn2cc(C(=O)c3ccc(Cl)cc3)c(=O)c3ccccc32)n1 ; measured IC50: < 100 nM

* * *

target or test system: CCXCKR2 receptor (Homo sapiens, UniProt P25106)
Construct: expressed in transfected cells; host or cells: MDA-MB-435S transfected with pcDNA3.1(+)-hRDC1 and/or MCF-7 (endogenous receptor)
assay explanation: Displacement of 125I-labeled SDF-1 from the CCXCKR2 receptor on MCF-7 and/or CCXCKR2-transfected MDA-MB-435S cells (radioligand binding, filtration)
recorded conditions: 125I SDF-1, 3 hr at 4° C., MCF-7 and/or MDA-MB-435S cells; read-out: Activity (concentration displacing at least 50% of the SDF-1 from the CCXCKR2 receptor)
Recorded IC50 values for a group of molecules are listed next.

Sample records with IC50:
O=C(c1ccc2c(c1)CCO2)c1cn(Cc2cccc(Br)n2)c2ccccc2c1=O	< 100 nM
O=C(c1cnccn1)c1cn(Cc2ccccc2F)c2ccccc2c1=O	500 to 20000 nM
Cc1cnc(C(=O)c2cn(Cc3cccc(Br)n3)c3ccccc3c2=O)cc1C	< 100 nM
Cc1ccc(C(=O)c2cn(Cc3cccc(-c4ncco4)n3)c3ccccc3c2=O)cc1C	100 to 500 nM
Cc1ccc(C(=O)c2cn(Cc3cccc(O)n3)c3ccccc3c2=O)cc1C	500 to 20000 nM
Cc1ccc(C(=O)c2cn(Cc3ccccc3F)c3cc4c(cc3c2=O)OCCO4)cc1C	500 to 20000 nM
Cc1cc(C(=O)c2cn(Cc3cccc(C#N)n3)c3ccccc3c2=O)cnc1C	< 100 nM
O=C(c1ccc(Cl)nc1)c1cn(Cc2cccc(Cl)c2)c2ccccc2c1=O	500 to 20000 nM

Reported IC50 for Cc1cc(C)cc(C(=O)c2cn(Cc3cccc(Br)n3)c3ccccc3c2=O)c1 was < 100 nM

Recorded values, source patent US7557213B2.
